Source of measurements: patent US20160046618A1

log10 IC50 values for the molecules below.
target: human recombinant BACE1 (Homo sapiens (Human), UniProt P56817); assay: In vitro enzymatic BACE1 FRET assay; format: biochemical; conditions: read-out: IC50 IP (μM) BACE1 enzyme
Sequence (P56817 46-501): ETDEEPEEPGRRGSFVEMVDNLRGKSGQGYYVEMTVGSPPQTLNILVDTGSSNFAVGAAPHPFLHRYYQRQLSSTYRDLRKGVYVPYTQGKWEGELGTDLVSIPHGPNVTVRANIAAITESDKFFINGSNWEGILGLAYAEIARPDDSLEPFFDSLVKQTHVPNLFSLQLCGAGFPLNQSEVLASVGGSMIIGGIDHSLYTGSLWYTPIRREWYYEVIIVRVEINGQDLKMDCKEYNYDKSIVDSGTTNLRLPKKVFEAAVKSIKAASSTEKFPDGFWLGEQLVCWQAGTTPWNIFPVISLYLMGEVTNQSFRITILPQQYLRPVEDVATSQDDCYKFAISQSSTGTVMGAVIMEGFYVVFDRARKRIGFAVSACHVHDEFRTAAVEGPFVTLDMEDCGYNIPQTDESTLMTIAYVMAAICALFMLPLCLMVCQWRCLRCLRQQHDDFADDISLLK
parameter: log10 IC50 (log10 of the value in µM)

molecule: COC[C@]12C[C@H]1[C@@](C)(c1cc(NC(=O)c3ncc(OCC(F)(F)F)nc3C)cc(F)c1F)N=C(N)S2 [Example 618]
log10 IC50: -2.22
//
molecule: NC1=N[C@](CF)(c2cc(Nc3nccc4nc(OCc5cocn5)cnc34)cc(F)c2F)[C@@H]2C[C@@H]2S1 [Example 843]
log10 IC50: -2.42
//
molecule: C#CCOc1cnc2c(Nc3cnc(OC)c([C@@]4(C)N=C(N)S[C@@]5(CF)C[C@H]54)c3)nccc2n1 [Example 611]
log10 IC50: -2.18
//
molecule: C#CCOc1cnc(C(=O)Nc2cnc(OC)c([C@@]3(C)N=C(N)S[C@@]4(CF)C[C@H]43)c2)cn1 [Example 612]
log10 IC50: -2.94
//
molecule: CC(NC(=O)[C@]12C[C@H]1[C@@](C)(c1cc(NC(=O)c3cnc(OCC(F)(F)F)cn3)ccc1F)N=C(N)S2)C(F)F (stereo partly drawn) [Example 1045]
log10 IC50: -2.74
//
molecule: CCC#CCOc1cnc2c(Nc3ccc(F)c([C@@]4(CF)N=C(N)S[C@@]5(/C=C/C(=O)N(C)C)C[C@H]54)c3)nccc2n1 [Example 952]
log10 IC50: -2.90
//
molecule: COC[C@H](C)Oc1cnc(C(=O)Nc2ccc(F)c([C@@]3(C)N=C(N)S[C@@]4(COC)C[C@H]43)c2)cn1 [Example 970]
log10 IC50: -2.07
//
molecule: C[C@]1(c2cc(Nc3ncnc4cc(F)cnc34)cc(F)c2F)N=C(N)S[C@H]2C[C@H]21 [Example 636]
log10 IC50: -1.04

----------
molecular target: Recombinant Cat D (Homo sapiens (Human)); experiment: In vitro enzymatic Cathepsin D (Cat D) FRET assay; assay type: biochemical; conditions: read-out: IC50 IP (μM) CatD
Sequence (P07339 65-412): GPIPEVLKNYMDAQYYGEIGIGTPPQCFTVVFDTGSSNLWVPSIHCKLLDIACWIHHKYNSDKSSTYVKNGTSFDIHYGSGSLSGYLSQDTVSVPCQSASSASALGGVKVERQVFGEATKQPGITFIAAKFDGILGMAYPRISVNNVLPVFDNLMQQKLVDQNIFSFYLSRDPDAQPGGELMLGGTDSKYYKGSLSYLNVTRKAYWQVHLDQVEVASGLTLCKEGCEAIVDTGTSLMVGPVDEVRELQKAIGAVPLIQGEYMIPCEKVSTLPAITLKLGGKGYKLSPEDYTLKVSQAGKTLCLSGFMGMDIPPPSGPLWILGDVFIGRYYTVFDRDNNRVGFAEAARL
parameter: IC50

query-smiles: NC1=N[C@](CF)(c2cc(NC(=O)c3ccc(Cl)cn3)ccc2F)[C@@H]2C[C@]2(/C=C/CO)S1
obs-value: > 400 µM

query-smiles: C[C@]1(c2cc(NC(=O)c3ccc(OCC(F)(F)C(F)F)cn3)ccc2F)N=C(N)S[C@]2(CO)[C@H]1C2(F)F
obs-value: 292 µM

query-smiles: CN(C)C(=O)[C@]12C[C@H]1[C@@](C)(c1cc(NC(=O)c3cnc(OCC(F)(F)F)cn3)cc(F)c1F)N=C(N)S2
obs-value: 695 µM

query-smiles: C#CCOc1cnc(C(=O)Nc2ccc(F)c([C@@]3(C)N=C(N)S[C@@]4(COC)C[C@H]43)c2)cn1
obs-value: 318 µM

query-smiles: C#C[C@H](C)Oc1cnc2c(Nc3ccc(F)c([C@@]4(C)N=C(N)S[C@@]5(CF)C[C@H]54)c3)nccc2n1
obs-value: 810 µM

query-smiles: C#CCOc1cnc2c(Nc3cc(F)c(F)c([C@@]4(C)N=C(N)S[C@@]5(COC)C[C@H]54)c3)nccc2n1
obs-value: 1390 µM

query-smiles: COC[C@]12C[C@H]1[C@@](C)(c1cc(NC(=O)c3cnc(OCC4COC4)cn3)ccc1F)N=C(N)S2
obs-value: 1330 µM

query-smiles: COCCNC(=O)/C=C/[C@]12C[C@H]1[C@@](CF)(c1cc(NC(=O)c3ccc(Cl)cn3)ccc1F)N=C(N)S2
obs-value: 602 µM

query-smiles: C[C@]1(c2cc(Nc3nccc4nc(OCc5cocn5)cnc34)cc(F)c2F)N=C(N)S[C@@]2(C(F)F)C[C@@H]12
obs-value: 299 µM

query-smiles: CC(C)(O)[C@]12C[C@H]1[C@@](C)(c1cc(Nc3ncnc4cc(C#N)cnc34)cc(F)c1F)N=C(N)S2
obs-value: 6.84 µM

query-smiles: C[C@]1(c2cc(NC(=O)c3cnc(OCc4ncco4)cn3)cnc2F)N=C(N)S[C@@]2(CF)C[C@H]21
obs-value: > 400 µM

query-smiles: CNC(=O)[C@]12C[C@H]1[C@@](C)(c1cc(NC(=O)c3cnc(OCC(F)(F)F)cn3)cc(F)c1F)N=C(N)S2
obs-value: 587 µM

query-smiles: CNC(=O)[C@]12C[C@H]1[C@@](C)(c1cc(NC(=O)c3ccc(OCC(F)(F)F)cn3)cc(F)c1F)N=C(N)S2
obs-value: 569 µM
